- assay system: Hemagglutinin of influenza A/Solomon Islands/3/06 (H1N1), on inactivated whole virions (Influenza A virus A/Solomon …)
- assay name: ELISA, B cell culture supernatant on inactivated whole virions
The reader will find reported OD450 values listed item by item below.
measurement kind: OD450 (OD450)

binder	units symbol	obs value
TCN-527 (5086_C06) (antibody, V domains shown) VH: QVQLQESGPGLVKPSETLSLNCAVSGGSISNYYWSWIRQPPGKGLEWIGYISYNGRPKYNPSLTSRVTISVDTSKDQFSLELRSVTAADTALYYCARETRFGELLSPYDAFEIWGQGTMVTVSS VL: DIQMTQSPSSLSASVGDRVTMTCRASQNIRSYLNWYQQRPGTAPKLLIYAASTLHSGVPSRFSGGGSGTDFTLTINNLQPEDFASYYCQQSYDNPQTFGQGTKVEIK	OD450	3.03
TCN-536 (5095_N01) (antibody, V domains shown) VH: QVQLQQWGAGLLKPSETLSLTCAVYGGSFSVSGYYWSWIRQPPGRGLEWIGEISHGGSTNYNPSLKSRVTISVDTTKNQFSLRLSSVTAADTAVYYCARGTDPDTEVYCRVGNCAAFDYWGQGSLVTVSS VL: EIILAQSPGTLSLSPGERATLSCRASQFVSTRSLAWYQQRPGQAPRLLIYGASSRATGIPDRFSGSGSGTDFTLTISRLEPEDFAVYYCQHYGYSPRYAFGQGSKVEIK	OD450	3.63
TCN-542 (5079_A16) (antibody, V domains shown) VH: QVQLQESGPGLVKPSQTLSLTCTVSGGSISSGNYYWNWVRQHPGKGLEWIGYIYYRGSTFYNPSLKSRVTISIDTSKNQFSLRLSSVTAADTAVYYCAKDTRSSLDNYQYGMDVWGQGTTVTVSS VL: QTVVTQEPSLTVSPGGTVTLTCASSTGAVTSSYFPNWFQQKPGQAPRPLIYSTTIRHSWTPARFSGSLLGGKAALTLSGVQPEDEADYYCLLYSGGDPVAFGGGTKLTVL	OD450	3.66
